Values from patent US6306860A

Give measured inhibition at 0.1 µg/mL for each item. Keep answers brief.
# target.desc: HIV reverse transcriptase (Human immunodeficiency virus type 1 group M subtype B, UniProt P04585)
# Construct: purchased Boehringer Mannheim
# assay.remarks: In vitro inhibition test against HIV reverse transcriptase
# Type: biochemical
# protocol.conditions: 0.1 μg/ml; read-out: Inhibitory activity of HIV-RT (%)
Number in %, nothing else.

INPUT: Need inhibition at 0.1 µg/mL of CCNC(=O)c1ccc(C(=O)N2CCN(CCO)CC2)nc1 , thanks.
OUTPUT: 35

INPUT: # query: inhibition at 0.1 µg/mL of entry COCCCNC(=O)c1ccc(C(=O)N2CCN(CCO)CC2)nc1
OUTPUT: 65

INPUT: Please report the recorded inhibition at 0.1 µg/mL for CC(C)NC(=O)c1ccc(C(=O)N2CCN(CCO)CC2)nc1 .
OUTPUT: 60

INPUT: Quick check: inhibition at 0.1 µg/mL of CCN(CC)C(=O)c1ccc(C(=O)N2CCN(c3ncccc3NC(C)C)CC2)nc1 ?
OUTPUT: 64

----------
# target.desc: HBV polymerase (Hepatitis B virus genotype D subtype ayw, UniProt P03156)
# Construct: made in house; host or cells: E. coli
# Sequence (P03156 whole entry): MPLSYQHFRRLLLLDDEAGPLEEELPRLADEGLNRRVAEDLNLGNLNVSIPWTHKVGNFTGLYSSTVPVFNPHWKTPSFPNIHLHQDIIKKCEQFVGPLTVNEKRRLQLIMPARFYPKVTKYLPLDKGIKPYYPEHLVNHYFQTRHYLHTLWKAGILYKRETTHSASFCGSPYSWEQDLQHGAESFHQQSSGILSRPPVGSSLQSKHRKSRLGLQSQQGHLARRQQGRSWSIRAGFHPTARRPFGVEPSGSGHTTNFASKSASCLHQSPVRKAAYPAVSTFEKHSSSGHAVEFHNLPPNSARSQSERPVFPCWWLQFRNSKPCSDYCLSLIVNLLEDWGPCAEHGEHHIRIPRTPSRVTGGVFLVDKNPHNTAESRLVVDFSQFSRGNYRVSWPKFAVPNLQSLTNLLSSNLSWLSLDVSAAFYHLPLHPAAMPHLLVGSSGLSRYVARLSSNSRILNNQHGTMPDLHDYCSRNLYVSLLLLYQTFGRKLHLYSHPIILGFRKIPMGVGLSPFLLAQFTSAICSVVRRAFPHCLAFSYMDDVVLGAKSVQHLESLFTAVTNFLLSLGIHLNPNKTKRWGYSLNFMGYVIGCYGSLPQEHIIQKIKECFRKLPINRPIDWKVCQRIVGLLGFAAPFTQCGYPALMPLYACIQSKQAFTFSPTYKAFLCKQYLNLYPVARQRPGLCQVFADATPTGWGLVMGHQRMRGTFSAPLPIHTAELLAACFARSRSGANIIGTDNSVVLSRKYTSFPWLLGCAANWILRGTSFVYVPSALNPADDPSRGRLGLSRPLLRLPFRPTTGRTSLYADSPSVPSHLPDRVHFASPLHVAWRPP
# assay.remarks: Inhibitory activities against HBV polymerase (reverse transcriptase activity) in vitro
# Type: biochemical
# protocol.conditions: 0.1 μg/ml; read-out: Inhibitory activity of HBV-RT (%)
Returns one of T or F; T when inhibition at 0.1 µg/mL is >= 60%.

INPUT: Is the recorded value of inhibition at 0.1 µg/mL equal to or greater than 60% for this compound? CC(C)Nc1cccnc1N1CCN(C(=O)c2ccc(C(=O)N[C@H](C)CO)cn2)CC1 [Exam. 3]
OUTPUT: F

INPUT: # bool: inhibition at 0.1 µg/mL of CC(C)Nc1cccnc1N1CCN(C(=O)c2ccc(C(=O)NCc3ccccn3)cn2)CC1 [Exam. 73] >= 60%
OUTPUT: T

INPUT: Answer whether inhibition at 0.1 µg/mL of CC(C)CNC(=O)c1ccc(C(=O)N2CCN(CCO)CC2)nc1 [Exam. 88] is greater than or equal to 60%.
OUTPUT: T

INPUT: Reported inhibition at 0.1 µg/mL at or above 60%? CC(C)Nc1cccnc1N1CCN(C(=O)c2ccc(C(=O)NCCN(C)C)cn2)CC1 [Exam. 62]
OUTPUT: F

INPUT: Form field: inhibition at 0.1 µg/mL at least 60%? Entry: CC(C)Nc1cccnc1N1CCN(C(=O)c2ccc(C(=O)N(CCO)c3ccccc3)cn2)CC1 [Exam. 17]
OUTPUT: F

INPUT: Check this compound for inhibition at 0.1 µg/mL at or above 60%: Nc1cccnc1N1CCN(C(=O)c2ccc(C(=O)NC3CCOC3=O)cn2)CC1 (centres unmarked) [Exam. 56]
OUTPUT: T

----------
# target.desc: HBV polymerase (Hepatitis B virus genotype D subtype ayw, UniProt P03156)
# Construct: made in house; host or cells: E. coli
# assay.remarks: Inhibitory activities against HBV polymerase (reverse transcriptase activity) in vitro
# Format: biochemical
# protocol.conditions: 1 μg/ml; read-out: Inhibitory activity of HBV-RT (%)
property.measured: inhibition at 1 µg/mL (%)
Kindly answer with a numeric value in %, unit omitted.

INPUT: Need inhibition at 1 µg/mL of Nc1cccnc1N1CCN(C(=O)c2ccc(C(=O)NCc3ccccn3)cn2)CC1 [Exam. 75] , thanks.
OUTPUT: 72

INPUT: Query: inhibition at 1 µg/mL; subject: CC(C)Nc1cccnc1N1CCN(C(=O)c2ccc(C(=O)NCCOCCO)cn2)CC1 [Exam. 48]
OUTPUT: 79

INPUT: Requested read-out: inhibition at 1 µg/mL. Entry: CC(C)Nc1cccnc1N1CCN(C(=O)c2ccc(C(=O)NCc3cccnc3)cn2)CC1 [Exam. 76]
OUTPUT: 62

INPUT: Data request, read-out inhibition at 1 µg/mL, for COc1ccc(NC(=O)c2ccc(C(=O)N3CCN(c4ncccc4NC(C)C)CC3)nc2)cn1 [Exam. 71]
OUTPUT: 83

INPUT: Can you share its inhibition at 1 µg/mL? I mean this compound: CC(C)Nc1cccnc1N1CCN(C(=O)c2ccc(C(=O)NC3CCSC3=O)cn2)CC1 (stereo not shown) [Exam. 57]
OUTPUT: 72

INPUT: Query: inhibition at 1 µg/mL; subject: CC(C)Nc1cccnc1N1CCN(C(=O)c2ccc(C(=O)NCCCn3ccnc3)cn2)CC1 [Exam. 83]
OUTPUT: 89

INPUT: Item COCCN(CCOC)C(=O)c1ccc(C(=O)N2CCN(c3ncccc3NC(C)C)CC2)nc1 [Exam. 42] has what recorded inhibition at 1 µg/mL?
OUTPUT: 70

INPUT: Would you kindly share the measured inhibition at 1 µg/mL for CC(C)Nc1cccnc1N1CCN(C(=O)c2ccc(C(=O)NC3CC3)cn2)CC1 [Exam. 35] ?
OUTPUT: 62

INPUT: Suppose we examine the compound CC(C)Nc1cccnc1N1CCN(C(=O)c2ccc(C(=O)NCc3ccccn3)cn2)CC1 [Exam. 73] ; what inhibition at 1 µg/mL value has been reported?
OUTPUT: 77

INPUT: Any idea what inhibition at 1 µg/mL was measured for CC(C)Nc1cccnc1N1CCN(C(=O)c2ccc(C(=O)NCCN3CCOCC3)cn2)CC1 [Exam. 59] ?
OUTPUT: 70

INPUT: Quick check: inhibition at 1 µg/mL of CC(C)NC(=O)c1ccc(C(=O)N2CCN(c3ncccc3NC(C)C)CC2)nc1 [Exam. 24] ?
OUTPUT: 65

INPUT: What value of measured inhibition at 1 µg/mL is listed for CC(C)CNc1cccnc1N1CCN(C(=O)c2ccc(C(=O)Nc3ncccc3O)cn2)CC1 [Exam. 86] ?
OUTPUT: 71

INPUT: inhibition at 1 µg/mL for CCNC(=O)c1ccc(C(=O)N2CCN(CCO)CC2)nc1 [Exam. 89] ?
OUTPUT: 68

INPUT: What does the record list as inhibition at 1 µg/mL for CC(C)NC(=O)c1ccc(C(=O)N2CCN(c3ncccc3N)CC2)nc1 [Exam. 27] ?
OUTPUT: 79

INPUT: Recorded inhibition at 1 µg/mL of CC(C)CNC(=O)c1ccc(C(=O)N2CCN(c3ncccc3NC(C)C)CC2)nc1 [Exam. 30] , please.
OUTPUT: 83

INPUT: Would you kindly share the measured inhibition at 1 µg/mL for CC(C)Nc1cccnc1N1CCN(C(=O)c2ccc(C(=O)NC3CCOC3=O)cn2)CC1 (stereo not shown) [Exam. 55] ?
OUTPUT: 79

INPUT: So what's the measured inhibition at 1 µg/mL for this one? CCNc1cccnc1N1CCN(C(=O)c2ccc(C(=O)NC(C)(C)CO)cn2)CC1 [Exam. 19]
OUTPUT: 72

INPUT: Which measured inhibition at 1 µg/mL value corresponds to CC(C)Nc1cccnc1N1CCN(C(=O)c2ccc(C(=O)NCCO)cn2)CC1 [Exam. 1] ?
OUTPUT: 54

INPUT: Please give the measured inhibition at 1 µg/mL for this compound: O=C(NCCO)c1ccc(C(=O)N2CCN(CCO)CC2)nc1 [Exam. 93]
OUTPUT: 73

INPUT: Looking for the measured inhibition at 1 µg/mL of CC(C)Nc1cccnc1N1CCN(C(=O)c2ccc(C(=O)N(CCO)c3ccccc3)cn2)CC1 [Exam. 17] , can you help?
OUTPUT: 66

INPUT: Query: inhibition at 1 µg/mL; subject: CC[C@H](CO)NC(=O)c1ccc(C(=O)N2CCN(c3ncccc3NC(C)C)CC2)nc1 [Exam. 7]
OUTPUT: 70

INPUT: Endpoint output: inhibition at 1 µg/mL of CC(C)CNc1cccnc1N1CCN(C(=O)c2ccc(C(=O)NC(C)C)cn2)CC1 [Exam. 26] . Value?
OUTPUT: 90

INPUT: I have this compound here, CCNc1cccnc1N1CCN(C(=O)c2ccc(C(=O)NCCN3CCOCC3)cn2)CC1 [Exam. 60] , and I need its recorded inhibition at 1 µg/mL.
OUTPUT: 66

INPUT: Consider the compound shown here: COCCNC(=O)c1ccc(C(=O)N2CCN(c3ncccc3NC(C)C)CC2)nc1 [Exam. 39] What is its recorded inhibition at 1 µg/mL?
OUTPUT: 80

INPUT: State the recorded inhibition at 1 µg/mL for this entry: Cc1cc(NC(=O)c2ccc(C(=O)N3CCN(c4ncccc4NC(C)C)CC3)nc2)no1 [Exam. 67]
OUTPUT: 72

INPUT: Endpoint output: inhibition at 1 µg/mL of CC(C)Nc1cccnc1N1CCN(C(=O)c2ccc(C(=O)N[C@@H](C)CO)cn2)CC1 [Exam. 4] . Value?
OUTPUT: 56

INPUT: Could you tell me which inhibition at 1 µg/mL is on file for CC(C)Nc1cccnc1N1CCN(C(=O)c2ccc(C(=O)NCCCN3CCCC3=O)cn2)CC1 [Exam. 58] ?
OUTPUT: 84

INPUT: Would you kindly share the measured inhibition at 1 µg/mL for O=C(NCCN1CCOCC1)c1ccc(C(=O)N2CCN(CCO)CC2)nc1 [Exam. 102] ?
OUTPUT: 70
